experimentalSystem: TDP-43 (Homo sapiens, UniProt Q13148 1-414)
Sequence (Q13148 whole entry): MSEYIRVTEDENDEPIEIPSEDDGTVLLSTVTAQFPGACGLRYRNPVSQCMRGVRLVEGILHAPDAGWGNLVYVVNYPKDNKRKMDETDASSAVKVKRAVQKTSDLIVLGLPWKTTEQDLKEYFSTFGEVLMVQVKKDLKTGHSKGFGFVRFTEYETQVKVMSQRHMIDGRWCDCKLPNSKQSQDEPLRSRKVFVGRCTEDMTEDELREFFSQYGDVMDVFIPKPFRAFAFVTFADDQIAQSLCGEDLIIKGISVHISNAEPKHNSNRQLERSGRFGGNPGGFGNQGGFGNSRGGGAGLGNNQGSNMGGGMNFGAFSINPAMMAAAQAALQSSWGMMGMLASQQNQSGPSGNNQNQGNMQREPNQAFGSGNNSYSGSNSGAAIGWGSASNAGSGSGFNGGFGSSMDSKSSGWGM
assayDetails: RNA Bind-n-Seq with designed 260-mer pool; 25 mM Tris-HCl, 150 mM KCl, 3 mM MgCl2, BSA (printed 500 mg/mL), 20 units/mL SUPERase IN; pH not stated; 500 nM RNA pool, 1 h, 4 C; TDP-43 5, 50, 500 nM; high values mean tight binding
conditionContext: protein: recombinant; tags: SBP (GST cleaved off with PreScission; pGEX-GST-SBP)
The full ranking holds about 9,900 sequences; the median of “r (bound/input frequency ratio)” is about 0.7, and the highest 2% start at about 6.5. The full list was thinned out, with the highest values kept by preference.
measure: binding signal

Return reported binding signal; argument: ENSMUSG00000061578.273|Ksr2 (ssRNA) RNA: GGGAGUUCUACAGUCCGACGAUCGCUUCGAUAUCCGCAUGCUAGGCCCUGGGCUCCAGAGUCGCUGAAGACCACUCUCCACAGCAGCUGUAACCCCAUCUAACAAGCCCUGUUCUGGAUAUAUCUCUGUGGCCAGGGCUGGACUGAGACUGACCCCCUCCUACUAAGCAUCUUAGAGUUUCUCUUUUCUCUUUAAUUGCAUCAGGACCCCUUUGGUCCAUGUACCCCGGUCUCUGUCACAUGCCUUUGUAUCUUGGAGGAAGUAAGAGAGGAGAGAGCCAGGGAGGGCUGAAGCUCUGGGACCCUCUUGCGGUCGCACUAGUGUGGAAUUCUCGGGUGUCAAGG
0.384 R (bound/input frequency ratio)
